src = patent US20260297085A1

target-under-test: human JAK2 kinase domain (JH1) (Homo sapiens)
Construct: recombinantly generated catalytic kinase (also known as JH1) domain of human JAK1, JAK2, JAK3 and TYK2
Sequence (O60674 849-1124 limits assumed): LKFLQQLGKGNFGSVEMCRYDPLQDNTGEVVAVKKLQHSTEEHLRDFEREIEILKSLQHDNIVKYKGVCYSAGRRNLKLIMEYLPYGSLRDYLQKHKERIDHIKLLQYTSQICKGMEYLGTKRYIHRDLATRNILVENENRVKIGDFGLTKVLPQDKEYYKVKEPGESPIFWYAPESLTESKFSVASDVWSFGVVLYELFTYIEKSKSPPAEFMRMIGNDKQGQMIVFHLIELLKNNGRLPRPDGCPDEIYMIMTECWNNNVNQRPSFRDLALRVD
test: JH1 biochemical assay for JAK2 (ADP-Glo kinase assay, recombinant JH1 catalytic domain, JAK3-974 peptide, 15 μM ATP)
condition-parameters: JH1 kinase domain, ADP-Glo
Procedure: Compounds of the disclosure were assessed for their ability to inhibit TYK2, JAK1, JAK2, and JAK3 activity. The inhibitory properties of the compounds of the disclosure described herein can be evidenced by testing in any one of the following protocols. The kinase activity of recombinantly generated catalytic kinase (also known as JH1) domain of human JAK1, JAK2, JAK3 and TYK2 were evaluated in a plate-based assay using the ADP-Glo™ Kinase Assay platform. […]
pIC50: −log10 of the molar value. Where a name gives a salt, the structure may show the parent alone.
reported-metric: pIC50

[
  {
    "molecule": "COc1cncc(-c2cc3c(N4C[C@@H](C)[C@@](C#N)(C5CC5)C4=O)ccnn3c2)c1 [Example 82]",
    "pIC50": "< 5.00"
  }
]

QUERY: Report pIC50 for C[C@@H]1CN(c2ccnn3cc(-c4ccc(C(=O)N(C)C)cn4)cc23)C(=O)[C@]1(C#N)C1CC1 [Example 124, trifluoroacetate] tested on human JAK2 kinase domain (JH1) (Homo sapiens).
RESULT: 6.00 to 7.00

QUERY: Report pIC50 for C[C@@H]1CN(c2ccnn3cc(-c4ccc(N(C)C)nc4)cc23)C(=O)[C@]1(C#N)C1CC1 [Example 62] tested on human JAK2 kinase domain (JH1) (Homo sapiens).
RESULT: 6.00 to 7.00

QUERY: Report pIC50 for Cn1cc(-c2cc3c(N4CC[C@](C)(C#N)C4=O)ccnn3c2)cn1 (single isomer, unassigned) [Example 39] tested on human JAK2 kinase domain (JH1) (Homo sapiens).
RESULT: < 5.00

QUERY: Report pIC50 for C[C@@H]1CN(c2ccnn3cc(-c4cnc5[nH]ncc5c4)cc23)C(=O)[C@]1(C#N)C1CC1 [Example 75] tested on human JAK2 kinase domain (JH1) (Homo sapiens).
RESULT: 6.00 to 7.00

QUERY: Report pIC50 for C[C@@H]1CN(c2ccnn3cc(-c4cnc5cnccn45)cc23)C(=O)[C@]1(C#N)C1CC1 [Example 116, trifluoroacetate] tested on human JAK2 kinase domain (JH1) (Homo sapiens).
RESULT: 5.30 to 6.00
